- Assay Comment: yeast display, Sf9 membrane polyspecificity reagent, FACS + sequencing; frameworks hold sequencing errors
Reported Property: polyreactivity (PSR sort gate)

QVQLEESGGGLVQAGGSLRLSCAASGSTFSDNAMGWYRQAPGKERELVAAISTGTSTYADSVKGRFTISRDNAKNTVYLQMNSLKPEDTAVYYCAADVGIRPLNYHPYNYWGQGTQVTVSS
low polyreactivity
QVQLVESGGGLVQAGGSLRLSCAASGSTFNWNAMGWYRQAPGKERELVAAITSSGARTRYADSVKGRFTISRDNAKNTVYLQMNSLKPEDTAVYYCAAYVYISPSGYYYWGQGTQVTVSS
high polyreactivity
QVQLVESGGGLVQSGGSLRLSCAASVIIFAWYAMGWYRQAPGKERELVAAITANSDSTYYADSVKGRFTISRDNAKNTVYLQMNSLKPEDTAVYDCAKRTYSRKFRGAYNYWGQGTQVTVSS
high polyreactivity
QVQLVESGGGLVQAGGSLRLSCAASGFTFPRYAMGWYRQAPGKVRQLVAAISYRGGRTYYADSVKWRFTISRDNAKNTVFLQMNSLKPEDTAVYYCAADKTPSARYDYWGQGTQVTVSS
high polyreactivity

Proceeding to the next sequence to report its polyreactivity (PSR sort gate).
Problem: Which value of polyreactivity (PSR sort gate) has been reported for QVQLVESGGGLVQAGGSLRLSCAASGFIILINVMGWYRQAPGKERELVAVITGGGTTNYADSVKGRFTFSRDNAKNTVYLQMNSLKPEDTAVYYCAVDAGAGDNDYWGQGTQVTVSS in the records?
Solution: low polyreactivity

###

- Assay Comment: yeast display, Sf9 membrane polyspecificity reagent, FACS + sequencing; frameworks hold sequencing errors
Reported Property: polyreactivity (PSR sort gate)

Examples from the recorded data:
QVQLVESGGGLVQAGGSLRLSCAASGRTIAPYAMGSYRQAPGKERELVAAITYSGGSTYYADSVKGRFTISRDNAKNTVYLQMNSLKPEDTAVYYCAVDTTTSYTVEYDYWGQGTQVTVSS
low polyreactivity
QVQLEESGGGLVQAGGSLRLSCAASGRIFSYNVMGWYRQAPGKEREFVAAITSNDGSTYYADSVKGRFTISRDNAKNTVYLQMNSLKPEDTAVYYCNADFGPVSLKEPFRDDYWGQGTQVNVSS
low polyreactivity
QVQLVESGRGLVQAGGSLRLSCAASGRTFSYYVMGWYRQAPGKERELVAAISDSGGSTYYADSVKGRFTISRDNAKNTVYLQMNSLKPEDTAVYYCATDSYWYRLREYNYWGQGTQVTVSS
high polyreactivity
QVQLVESGGGLVQAGGSLGLSCAASGRIFARYAMGWYRQAPGKERELVAAITKSVGSTYYADSVKGRFTISRDNAKNTVYLQMNIMKPEDTAVYYCAARYRGGYYFGYETYYYWGQGTQVTVSS
high polyreactivity
QVQLVESGGGLVQAGGSLRLSCAASGRIFNSNTMGWYRQAPGKERELVAAITYSGGSTYYADSVKGRFTISRDNAKNTVYLQMNSLKPEDTAVYYCAADFWEYDGPWYANDYDSWGQGTQVTVSS
low polyreactivity
QVQLVESGGGLVQAGGSLRLSFAASGFIFYRNTMGWYRQAPGKERELVAGITSGGRTNYADSVKGRFTISRDNAKNTVYLQMNSLKPEYTAVYYCNRVVYTYISTGSRHGRYNYWGQGTQVTVSS
high polyreactivity

Problem: Given the entry QVQLVESGGGLVQAGGSLRLSCAASGFTFWRNTMGSYRQARGKEREFVAAIDWSGGSTTYADSVKGRFTISRDNAKNTVYLQMNSLKKEDTAVYYCAAAERRRHYWWGQESDYWGQGTQVTVSS , report its measured polyreactivity (PSR sort gate).
Solution: low polyreactivity

Problem: Subsequent entry: QVQLEESGGGLVQAGGSLRLSWAASGSTFQSYAMGWYRQAPGKERELVAVIDSGGRTYYADSVKGRFTISRDNAKNTVYLQMNSLKPEDTAVYYCATVPGYSLYDLIVYWGQGTQVTVSS
Solution: high polyreactivity

###

- Assay Comment: yeast display, Sf9 membrane polyspecificity reagent, FACS + sequencing; frameworks hold sequencing errors
Reported Property: polyreactivity (PSR sort gate)

QVQLVESGGGLVQAGGSLRLSCDASGFTFATYAMGRYRQAPGKERELVAAISSGGYTYYADSVKGRFTISRDNAKNTVYLQMNSLKPEDTGVYYCNVSIGLFYLWYFNRYYYWGQGTQVTVSS
high polyreactivity
QVQLVESGGGLVQAGGSLRLSCAASGRIYFNAMGWYRQAPGKERELLADISWIGGSTYYADSVKGRFTISRDNGKNTVYLQMNRLKPEYTAVYYCAAVFLSWWDSYDFWGQGTQVTVSS
high polyreactivity

###

- Assay Comment: yeast display, Sf9 membrane polyspecificity reagent, FACS + sequencing; frameworks hold sequencing errors
Reported Property: polyreactivity (PSR sort gate)

QVQLVESGGGLVQAGGSLRLSCAASGRIFYPNTMGWYIQAPGKERELVAAISRSGGSTYYTDSVKGRFTISRDNAKNTVYLQMNSLKPEDTAVYYCATVPYESRYDYWGQGTQVTVSS
high polyreactivity
QVQLVESGGGLVQAGGSLRLSCAASGSTIDYYAMGWYRQAPGKERELVAGIDSAGSTNYADSVKGRFTISRDNAKNTFYLQMNSLKTGRYRGLYCNVGKTITTYAFTTFDYWGQGTHVTVSS
low polyreactivity
QVQLVESGGGLVQAGGSLRLSCAASGGIFDSYAMGWYRQAPGKERELVAAISWSGDRTYYADSVKGRFTISRDNAKNTVYLQMISLKPEDTAVYYCAADDGYTYGEGYYWGQGTQVTVSS
high polyreactivity
QVQHVDSGGGLVQAGGSLRLSCAASGSTFSLNAMGWYRQAPGKERELVAAISSGDSTNYADSVKGRFTISRDNAKNTVYLQMNSVKPEDTAVYYCAVEVYYTGFYYSPYAYDYWGQGTQVTVSS
low polyreactivity

Problem: Given QVQLVESGGGIVQAGGSLRLSCAASGSTFSYYDMGWYRQAPGKERELVAAISWNGGTTYYADSVKGRFTISRDNAKNTVYLQMNSLKPEDTAVYYCAATWDFYWAPYDSWGQGTQVTVSS , state its recorded polyreactivity (PSR sort gate).
Solution: low polyreactivity

Problem: Then this sequence: QDQLVESAGGLVQAGGSLRLICAASGSTFALYAMGWYRQAAGTERELVAAISRSGGRTYYADSVKGRFTISRDNPKNTVYLQMNSLKPDDTAVYYCAADFSRPGGLDESWGQGTQVTVSS
Solution: high polyreactivity

Problem: Next sequence up: QVQLVESGGGLVQAGGSLRISCAASGSIFLYNDMGWYRQAPGKERELVAAITSTGNTNYADSVKGRFTISRDNAKNTVYLQMNSLNRKRPRSITALNVSCTSVVVGYDYWGQGTQVTVSS
Solution: low polyreactivity

Problem: Next sequence up: QVQLVESGGGLVQAGGSLRLSCAASGFTFQENAMGWYRQAPGKERELVAAISYGGGSTYYADSVKGRFTISRDNAKNTVYLQMNSLKPEDTAVYYCAADGGSAYAWYFAELYGYWGQGTQVTVSS
Solution: low polyreactivity

Problem: Next sequence: QVQLVESGGGLVQAGGRLRLSCAASGTRYYAMGWYRQAPGNERELVAGIRWRDGGTYYADSVKGRFTISRDNAKNTVYLQMNSLKPEDTAVYYCNAAQSVELGYDYWGQGTQVTVSS
Solution: high polyreactivity

###

- Assay Comment: yeast display, Sf9 membrane polyspecificity reagent, FACS + sequencing; frameworks hold sequencing errors
Reported Property: polyreactivity (PSR sort gate)

Example sequences with recorded polyreactivity (PSR sort gate):
QVQLVESGGGLVQAGGSLRLICAASGSTSYVYAMGWYRQAPGKERELVAAISGSGGRTYYADSVKGRFTISRDNAKNTVYLQMNSLKPEDTAVYYCNALPRPSYPFEYWGQGTQVTVSS
high polyreactivity
QVQLVESGGGLVQAGGSLRLSCAASGSTYYNAMGWSRQAPGNERELVAAIRFRSGSTYYADSVKGRFTISRDNAKNTVYLQMNSLTPEDTAVYYCAADNKRSWRYAYNYWGQGTQVTVSS
high polyreactivity
QVQLVESGGGLVQAGGSLRLSCAASGFNFLTYAMGWYRQATGKESELVAAISSSGGRTTYADSVKGRFTISRDNAKNTVYLQMNSLKPEDTAVYYCAVEDYTIVLDYESWGQGTQVTVSS
high polyreactivity
QVQLVESGGGLVQAGGSLRLSCAASGSIFKQNAMGWYRQAPGKERELVADITSSGGSTYYADSVKGRFTISRDNAKNTVYLQMNSLKPEDTAVYYCAADGNGVDYDYWGQGTQVTVSS
low polyreactivity

Then this sequence:
Problem: Item QVQLVESGGGLVQAGGSLRLSCAASGIIFRLNAMGWYRQAPGKVRELVAAIRRRGGSTYYADSVKGRFTISRDNAKNTVYLQMNSLKPEDTAVYYCAKDPHGSDFGYWGQGTQVTVSS has what recorded polyreactivity (PSR sort gate)?
Solution: low polyreactivity

###

- Assay Comment: yeast display, Sf9 membrane polyspecificity reagent, FACS + sequencing; frameworks hold sequencing errors
Reported Property: polyreactivity (PSR sort gate)

QVQLVESGGGLVPAGGSLRLSCAASGRTFFPYAMAWYRQAPGKEREFVAAITWSGGSTTYADSVKGRFTISRDNAKNTVYLQMNSLKPEDTAVYYCNAGRRRSYSYDYWGQGTQVTVSS
low polyreactivity
QVQLVESGGGLVQAGGSLRLSCAASGSTLDEYAMGWYRQAPGKEREFVAAISWSDGSTYADSVKGRFTISRDNAKNTVYLQMNSLKPEDTAVYYCNAYAYVSLYYSGEYWGQGTQVTVSS
low polyreactivity
